In this section we review reported log10(Kd) values for a set of compounds.
- TARGET_DESC: FLT3 N841I (Homo sapiens, UniProt P36888, N841I)
- ASSAY_SUMMARY: DiscoverX KINOMEscan competition binding assay, FLT3 N841I
- ASSAY_SETUP: 11-point 3-fold dilution
# log10 transformed; quantity=Kd; unit=nM

Here are 5 compounds together with their reported answers.
{"COMPOUND": "COc1cc2ncc(-c3nc(N[C@H]4CNCC[C@@H]4F)ncc3F)n2nc1N1CCCS1(=O)=O [Compound 112a]", "ASSAY_VALUE": -0.70}
{"COMPOUND": "COc1cc2ncc(-c3nc(N[C@H]4CNCC[C@@H]4F)ncc3F)n2nc1C1COC1 [Compound 92a]", "ASSAY_VALUE": -0.74}
{"COMPOUND": "CC(C)(O)c1ccc2ncc(-c3nc(N[C@H]4CNCC[C@@H]4F)ncc3F)n2c1 [Compound 46a]", "ASSAY_VALUE": 0.51}
{"COMPOUND": "CC(C)(O)c1cn2c(-c3nc(N[C@H]4CNCC[C@@H]4F)ncc3F)cnc2cn1 [Compound 100a]", "ASSAY_VALUE": 1.20}
{"COMPOUND": "FC(F)COc1cc2ncc(-c3ccnc(N[C@H]4CNCC[C@@H]4F)n3)n2nc1C1CC1", "ASSAY_VALUE": -0.06}

Could you now look at the following compound, please?
Retrieve log10(Kd) measured for COc1cc2ncc(-c3nc(N[C@H]4CNCC[C@@H]4F)ncc3F)n2nc1C(C)(C)O [Compound 45a] and print it. 0.04

----------
In this section we review reported pIC50 values for a set of molecules.
- TARGET_DESC: IRAK4 (Homo sapiens)
- Sequence (Q9NWZ3 1-460): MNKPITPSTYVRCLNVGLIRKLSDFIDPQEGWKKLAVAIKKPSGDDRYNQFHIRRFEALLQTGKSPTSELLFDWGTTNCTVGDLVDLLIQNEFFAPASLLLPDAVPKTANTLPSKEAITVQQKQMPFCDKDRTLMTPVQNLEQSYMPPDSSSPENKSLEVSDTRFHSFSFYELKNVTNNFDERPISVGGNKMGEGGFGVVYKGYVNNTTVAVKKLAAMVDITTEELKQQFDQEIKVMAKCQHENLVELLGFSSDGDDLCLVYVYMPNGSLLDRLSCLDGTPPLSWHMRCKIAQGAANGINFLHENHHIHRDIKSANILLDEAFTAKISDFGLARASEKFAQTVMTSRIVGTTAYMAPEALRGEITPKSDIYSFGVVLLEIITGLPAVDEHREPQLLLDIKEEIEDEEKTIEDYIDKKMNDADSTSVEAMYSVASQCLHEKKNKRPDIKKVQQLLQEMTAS
- ASSAY_SUMMARY: RBC HotSpot Kinase Assay, IRAK4
- Assay type: biochemical
- Design: purchased Reaction Biology (RBC HotSpot)
- ASSAY_SETUP: isolated kinase enzyme, 33P-ATP, P81 filter-binding
The value called pIC50 is obtained by taking minus log10 of the concentration in mol/L.

{"MOLECULE": "COc1cc2ncc(-c3nc(N[C@H]4CNCC[C@@H]4F)ncc3F)n2nc1C12CC(C1)C2 [Compound 69a]", "TARGET_DESC": "IRAK4 (Homo sapiens)", "OBSERVABLE": "pIC50", "ASSAY_VALUE": 9.15}
{"MOLECULE": "COc1cc2ncc(-c3nc(N[C@H]4CNC[C@@H]4F)ncc3F)n2nc1C1CC2(CCC2)C1 [Compound 58a]", "TARGET_DESC": "IRAK4 (Homo sapiens)", "OBSERVABLE": "pIC50", "ASSAY_VALUE": 8.30}

Retrieve pIC50 measured for COc1cc2ncc(-c3ccnc(N[C@@H]4CCCNC4)n3)n2nc1N1CC(F)(F)C1 [Compound 17a] and print it. 6.67

Retrieve pIC50 measured for COc1cc2ncc(-c3ccnc(N[C@@H]4CCCNC4)n3)n2nc1C(C)(C)O [Compound 42a] and print it. 6.30

Retrieve pIC50 measured for CC(O)(c1ccc2ncc(-c3nc(N[C@@H]4CCCNC4)ncc3F)n2c1)C(F)(F)F (single isomer, unassigned) [Compound 39a] and print it. 9.00

Retrieve pIC50 measured for COc1cc2ncc(-c3nc(N[C@H]4CNC[C@@H]4F)ncc3F)n2nc1N1CCCC1=O [Compound 107a] and print it. 7.70

Retrieve pIC50 measured for COc1cc2ncc(-c3nc(N[C@H]4CNCC[C@@H]4F)ncc3F)n2nc1C1CC(F)(F)C1 [Compound 49a] and print it. 9.30

Retrieve pIC50 measured for CC(O)(c1ccc2ncc(-c3ccnc(N[C@H]4CNC[C@@H]4F)n3)n2c1)C(F)(F)F (single isomer, unassigned) [Compound 24a] and print it. 9.05

Retrieve pIC50 measured for c1ncc(-c2cnc3cc(OC4CC4)c(C4CC4)nn23)nc1N[C@@H]1CCCNC1 [Compound 15a] and print it. 7.74

Retrieve pIC50 measured for COc1cc2ncc(-c3nc(N[C@@H]4CCCNC4)ncc3F)n2nc1C1CC(F)(F)C1 [Compound 51a] and print it. 8.52

Retrieve pIC50 measured for COc1cc2ncc(-c3nc(N[C@@H]4CCCNC4)ncc3F)n2nc1N1CCOCC1 [Compound 120a] and print it. 8.00

Retrieve pIC50 measured for `FC(F)COc1cc2ncc(-c3cncc(N[C@H]4CNCC[C@@H]4F)n3)n2nc1C1CC1` and print it. 8.70

Retrieve pIC50 measured for c1cc(-c2cnc3cc(OC4CC4)c(C4CC4)nn23)nc(N[C@@H]2CCCNC2)n1 [Compound 11a] and print it. 8.30

Retrieve pIC50 measured for CC(C)(O)c1ccc2ncc(-c3nc(N[C@@H]4CCCNC4)ncc3F)n2c1 [Compound 48a] and print it. 8.30

Retrieve pIC50 measured for F[C@H]1CNC[C@@H]1Nc1nccc(-c2cnc3cc(OC4CC4)c(C4CC4)nn23)n1 [Compound 10a] and print it. 8.52

----------
- TARGET_DESC: FLT3 (Homo sapiens, UniProt P36888)
- Sequence (P36888 27-993): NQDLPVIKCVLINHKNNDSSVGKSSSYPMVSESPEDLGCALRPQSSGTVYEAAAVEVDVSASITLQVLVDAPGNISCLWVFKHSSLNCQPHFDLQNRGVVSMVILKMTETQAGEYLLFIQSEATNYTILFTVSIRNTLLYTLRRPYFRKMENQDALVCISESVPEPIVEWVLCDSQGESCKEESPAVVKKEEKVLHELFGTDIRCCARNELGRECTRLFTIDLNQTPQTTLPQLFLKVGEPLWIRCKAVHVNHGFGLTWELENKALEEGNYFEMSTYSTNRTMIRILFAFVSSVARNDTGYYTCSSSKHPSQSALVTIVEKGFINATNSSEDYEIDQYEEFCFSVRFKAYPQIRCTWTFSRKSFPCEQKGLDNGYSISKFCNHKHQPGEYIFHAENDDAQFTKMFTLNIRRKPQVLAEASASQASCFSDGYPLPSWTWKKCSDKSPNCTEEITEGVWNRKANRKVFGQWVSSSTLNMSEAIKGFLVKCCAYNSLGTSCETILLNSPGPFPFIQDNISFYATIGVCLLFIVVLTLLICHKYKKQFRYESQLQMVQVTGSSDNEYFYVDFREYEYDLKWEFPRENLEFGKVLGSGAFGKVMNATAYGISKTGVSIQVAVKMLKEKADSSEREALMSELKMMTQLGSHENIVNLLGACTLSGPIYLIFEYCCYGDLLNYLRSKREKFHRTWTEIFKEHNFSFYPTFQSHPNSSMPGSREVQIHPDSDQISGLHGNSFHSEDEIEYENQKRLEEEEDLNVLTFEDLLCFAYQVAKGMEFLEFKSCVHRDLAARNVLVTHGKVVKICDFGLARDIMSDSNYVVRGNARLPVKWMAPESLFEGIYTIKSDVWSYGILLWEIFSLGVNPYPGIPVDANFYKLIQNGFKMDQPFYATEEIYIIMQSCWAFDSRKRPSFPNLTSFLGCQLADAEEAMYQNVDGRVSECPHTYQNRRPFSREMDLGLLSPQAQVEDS
- ASSAY_SUMMARY: RBC HotSpot Kinase Assay, FLT3
- Type: biochemical
- Parameters: purchased Reaction Biology (RBC HotSpot)
- ASSAY_SETUP: isolated kinase enzyme, 33P-ATP, P81 filter-binding
pIC50: −log10 of the molar value.
In this section we review reported pIC50 values for a set of molecules.

{"MOLECULE": "COc1cc2ncc(-c3nc(N[C@H]4CNCC[C@@H]4F)ncc3F)n2nc1C1(C)COC1 [Compound 70a]", "TARGET_DESC": "FLT3 (Homo sapiens, UniProt P36888)", "pIC50": "> 9.30"}

Retrieve pIC50 measured for COc1cc2ncc(-c3nc(N[C@H]4CNCC[C@@H]4F)ncc3F)n2nc1C(C)(C)O [Compound 45a] and print it. > 9.30

Retrieve pIC50 measured for COc1cc2ncc(-c3ccnc(N[C@H]4CNC[C@@H]4F)n3)n2nc1C1CCC1 [Compound 77a] and print it. > 9.30

Retrieve pIC50 measured for COc1cc2ncc(-c3nc(N[C@@H]4CCCNC4)ncc3F)n2nc1N1CCCS1(=O)=O [Compound 110a] and print it. > 9.30

Retrieve pIC50 measured for COc1cc2ncc(-c3nc(N[C@H]4CNCC[C@@H]4F)ncc3F)n2nc1[C@H]1C[C@H](O)C1 [Compound 125a] and print it. > 9.30

Retrieve pIC50 measured for F[C@H]1CCNC[C@@H]1Nc1nccc(-c2cnc3cc(OC4CC4)c(C4CC4)nn23)n1 [Compound 12a] and print it. > 9.30

Retrieve pIC50 measured for COc1cc2ncc(-c3nc(N[C@H]4CNC[C@@H]4F)ncc3F)n2nc1C1CCCCC1 [Compound 64a] and print it. > 9.30

Retrieve pIC50 measured for `FC(F)COc1cc2ncc(-c3cncc(N[C@H]4CNC[C@@H]4F)n3)n2nc1C1CC1` and print it. > 9.30

Retrieve pIC50 measured for CC(C)(O)c1cn2c(-c3nc(N[C@H]4CNCC[C@@H]4F)ncc3F)cnc2cn1 [Compound 100a] and print it. 9.00

Retrieve pIC50 measured for COc1cc2ncc(-c3ccnc(N[C@@H]4CCCNC4)n3)n2nc1C1CCCCC1 [Compound 87a] and print it. > 9.30

Retrieve pIC50 measured for CC(C)(O)c1ccc2ncc(-c3nc(N[C@H]4CNC[C@@H]4F)ncc3F)n2c1 [Compound 47a] and print it. > 9.30

Retrieve pIC50 measured for c1cc(-c2cnc3cc(OC4CC4)c(C4CC4)nn23)nc(N[C@@H]2CCCNC2)n1 [Compound 11a] and print it. > 9.30

Retrieve pIC50 measured for COc1cc2ncc(-c3nc(N[C@H]4CNC[C@@H]4F)ncc3F)n2nc1N1CCCS1(=O)=O [Compound 111a] and print it. > 9.30

Retrieve pIC50 measured for CC(O)(c1ccc2ncc(-c3ccnc(N[C@@H]4CCCNC4)n3)n2c1)C(F)(F)F (single isomer, unassigned) [Compound 22a] and print it. 9.22

Retrieve pIC50 measured for COc1cc2ncc(-c3nc(N[C@H]4CNCC[C@@H]4F)ncc3F)n2nc1N1CCCC1=O [Compound 108a] and print it. 8.70

Retrieve pIC50 measured for COc1cc2ncc(-c3ccnc(N[C@H]4CNC[C@@H]4F)n3)n2nc1C1CC(C)(C)C1 [Compound 80a] and print it. > 9.30

Retrieve pIC50 measured for COc1cc2ncc(-c3nc(N[C@@H]4CCCNC4)ncc3F)n2nc1N1CCS(=O)(=O)CC1 [Compound 124a] and print it. 8.70
